B1: PTPRD (parent)
chain: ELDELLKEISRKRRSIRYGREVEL

variants of: B1; assay: protein stability index of a GFP-peptide fusion (GPS, HEK-293T) (PSI 1-6); higher = more stable; details: c terminus: a fixed tail appended;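 also: lentivirally expressed fusions sorted by FACS into six bins by GFP to DsRed ratio, PSI derived from sequencing read proportions per bin multiplied by bin number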
Quantity Name: protein stability index
Number, no unit, nothing else.

>  <Sequence Entry>
ELDELLKEISRKRRSIRNGREVEL [Y18N]

>  <protein stability index>
2.74

$$$$
>  <Sequence Entry>
ELDELLKEISRKRRSIRYGREVEG [L24G]

>  <protein stability index>
2.5

$$$$
>  <Sequence Entry>
ELDELLKEISRKRRSIKYGREVEL [R17K]

>  <protein stability index>
2.17

$$$$

[ask] Given the entry ELDELLKEISRKRRSLRYGREVEL [I16L] , report its measured protein stability index.
[reply] 2.42

[ask] Lookup ELDELLKEISRKRRSIRYGREDEL [V22D]
[reply] 2.96

[ask] Lookup ELDELLKEISRKRRSIRYGWEVEL [R20W]
[reply] 1.43

[ask] Lookup ELDKLLKEISRKRRSIRYGREVEL [E4K]
[reply] 2.59

[ask] Lookup ELDELVKEISRKRRSIRYGREVEL [L6V]
[reply] 3.8

[ask] Lookup ELDELLKEIRRKRRSIRYGREVEL [S10R]
[reply] 2.48

[ask] Lookup ELDELLKEISRKRDSIRYGREVEL [R14D]
[reply] 2.65

[ask] Lookup ELDELLKEISRPRRSIRYGREVEL [K12P]
[reply] 2.53

[ask] Lookup ELDELLKPISRKRRSIRYGREVEL [E8P]
[reply] 2.77

[ask] Lookup EWDELLKEISRKRRSIRYGREVEL [L2W]
[reply] 2.99

[ask] Lookup ELDELLKEISRKRRSIREGREVEL [Y18E]
[reply] 2.96

[ask] Lookup PLDELLKEISRKRRSIRYGREVEL [E1P]
[reply] 3.07

[ask] Lookup ELDELLKEISRKRFSIRYGREVEL [R14F]
[reply] 1.96

[ask] Lookup ELDELEKEISRKRRSIRYGREVEL [L6E]
[reply] 4.28

[ask] Lookup ELDELLKETSRKRRSIRYGREVEL [I9T]
[reply] 3.97

[ask] Lookup ELDELLKEISRKRRSIRYPREVEL [G19P]
[reply] 2.17

[ask] Lookup ELDELLKTISRKRRSIRYGREVEL [E8T]
[reply] 2.79

[ask] Lookup ENDELLKEISRKRRSIRYGREVEL [L2N]
[reply] 4.2

[ask] Lookup ELDELLKEISRARRSIRYGREVEL [K12A]
[reply] 1.99
